Values were extracted from PubChem BioAssay (NCI).

Tested on: UACC-62 melanoma
protocol text: NCI tumour cell line growth inhibition, 48 h; in the data active = GI50 below about 0.43 µM; inactive = the rest
Return exactly one item of active, inactive

Examples with answers:
Can you look up the reported call for O=C(Nc1cccc(-n2ccc3c(NC(=O)c4ccccc4)nccc32)c1)Nc1cc(C(F)(F)F)cc(C(F)(F)F)c1 for me?
inactive

Follow-up entry: OCc1ccc(-c2ccc(-c3ccc(CO)o3)[se]2)o1
inactive

Follow-up entry: COc1cc(-c2cc3ncccc3c3nc(N)c4cccnc4c23)cc(OC)c1OC
active

Further cases:
Can you look up the reported call for Cc1cc(S(=O)(=O)Nc2nc3cscc3c(=O)n2Cc2ccccc2)c(S)cc1Cl for me?
inactive

Follow-up entry: COc1cc(C#Cc2ccc(=O)oc2C#Cc2ccccc2)cc(OC)c1OC
inactive

* * *

Test system: ACHN renal
protocol text: NCI tumour cell line growth inhibition, 48 h
Where a SMILES comes first, the peptide text is derived from it. The star is where a group is joined. Boc = CC(C)(C)OC(=O)*; OSu = O=C1CCC(=O)N1O*
Threshold rule: TGI greater than or equal to 10 µM is Criterion met; below that, Criterion not met.

Test whether the compound CN(CCn1cnc2c1c(=O)n(C)c(=O)n2C)C1CCCCC1 records TGI of 10 µM or higher.
Criterion met

Follow-up entry: COC(=O)c1c(O)ccc2c1c1c(n2Cc2ccccc2Cl)C(=O)c2ccccc2C1=O
Criterion met

Follow-up entry: CCCN1C(=O)CC(C)N(Cc2ccccc2Cl)C1=S (centres undefined)
Criterion met

Follow-up entry: C[N-]c1nnnn1C.[Au+].c1ccc([PH+](c2ccccc2)c2ccccc2)cc1
Criterion not met

Follow-up entry: CC(NC(=O)C(NC(=O)OC(C)(C)C)C(C)C)C(=O)NCC(=O)ON1C(=O)CCC1=O (stereo not drawn) (Boc-Val-Ala-Gly-OSu; configuration not given here)
Criterion met

Further cases:
Test whether the compound COC(=O)CCC(=O)NC1=C(NCc2ccccc2)C(=O)c2ccccc2C1=O records TGI of 10 µM or higher.
Criterion met

Follow-up entry: COC(=O)/C=C1/CCC(C(=O)OC)N1 (centres undefined)
Criterion met

Follow-up entry: CN(C)CC(C)(C)/C(=N\Nc1ccccc1)c1ccccc1
Criterion met

Follow-up entry: CN(C)CCNC(=O)c1cccc2c(NCCN(C)C)c3ccccc3nc12
Criterion not met

* * *

Here the recorded TGI is given for each entry.
Tested on: SW-620 colon
protocol text: NCI tumour cell line growth inhibition, 48 h

Name the reported TGI value associated with the molecule COc1ccc2nc3c([N+](=O)[O-])ccc4c3c(c2c1)NCCN4CCO
3.1 µM

Follow-up entry: CC1=Nc2nc(Cl)cn2C(=O)C1(Cl)Cl
> 10 µM

Follow-up entry: CCOC(=O)C1N(S(=O)(=O)c2ccc(C)cc2)CCC12c1ccccc1N(C(C)=O)C2c1ccc(OC)c(OC)c1 (stereo not given)
> 100 µM

Follow-up entry: COc1ccc(-n2cnnc2-c2nsc3ccccc23)cc1
> 100 µM

Follow-up entry: Clc1nc(Cl)c2ncn(Cc3cccc(Cn4cnc5c(Cl)nc(Cl)nc54)c3)c2n1
3.34 µM

* * *

Test system: HCC-2998 colon
protocol text: NCI tumour cell line growth inhibition, 48 h
quantity: GI50

As a guide, the following entries are already answered.
Name the reported GI50 value associated with the compound CCOC(=O)N1CCN(c2nc(Nc3cc(C)[nH]n3)c3ccccc3n2)CC1
11.7 µM

Follow-up entry: Fc1ccc2[nH]cc(-c3nonc3-c3c[nH]c4ccc(Br)cc34)c2c1
1.89 µM

Follow-up entry: COc1cc(OC)cc(N(CCNC(C)C)c2ccc3ncc(-c4cnn(C)c4)nc3c2)c1
11.2 µM

Follow-up entry: COC(=O)CCc1c[nH]c2ccc(N(CCCl)CCCl)cc12
8.33 µM

Continue with the next compound.
Name the reported GI50 value associated with the compound Clc1nc(Cl)c2ncn(Cc3cccc(Cn4cnc5c(Cl)nc(Cl)nc54)c3)c2n1
2.38 µM

* * *

Tested on: UACC-257 melanoma
protocol text: NCI tumour cell line growth inhibition, 48 h; in the data active = GI50 below about 0.43 µM; inactive = the rest
Return exactly one item of active, inactive

Examples with answers:
Can you look up the reported call for [Cl-].[O-]/N=C(\c1ccccc1)c1ccccn1.[O-]/N=C(\c1ccccc1)c1ccccn1.[O-]/N=C(\c1ccccc1)c1ccccn1.[Sm+3] for me?
inactive

Follow-up entry: CC(C)(C)C(=O)c1c(C(F)(F)F)n([O-])c2ccccc2[n+]1=O
inactive

Follow-up entry: CCC[CH2][Sn]([CH2]CCC)([CH2]CCC)[O]c1ccc(Cl)cc1Cl
active

Follow-up entry: CC[N+](CC)=c1sc2c(s1)C(c1ccc(Cl)cc1)Oc1ccc(Cl)cc1-2 (configuration not stated)
inactive

Further cases:
Can you look up the reported call for CCOC(=O)N1CCN(c2nc(Nc3cc(C)[nH]n3)c3ccccc3n2)CC1 for me?
inactive

Follow-up entry: COc1ccc2c(c1)C(=O)c1c-2n(CCCN=[N+]=[N-])c(=O)c2cc(OC)c(OC)cc12
inactive

Follow-up entry: COc1ccc(S(=O)(=O)N2CC(C)(C)CN(S(=O)(=O)c3ccc(OC)cc3)C2C(=O)NO)cc1
inactive

Follow-up entry: CCCNNC(=O)/C=C/c1ccc(CNCCc2c(C)[nH]c3ccccc23)cc1
active

Follow-up entry: CC(=O)[O][Ga]([Cl])[O]C(C)=O
inactive

Follow-up entry: Cc1cc(S(=O)(=O)Nc2nc3cscc3c(=O)n2Cc2ccccc2)c(S)cc1Cl
inactive

Follow-up entry: COc1cccc(-c2nc3sccn3c2-c2ccnc(NCCCNS(=O)(=O)c3cccc(F)c3)c2)c1
inactive

* * *

Test system: TK-10 renal
protocol text: NCI tumour cell line growth inhibition, 48 h; in the data active means GI50 below about 0.43 µM; inactive means the rest
Return exactly one item of active, inactive

Can you look up the reported call for COC(=O)[C@@H](C)C[C@H](Cc1ccccc1)NC(=O)c1csc(CC[C@H](C(C)C)N(C)C(=O)[C@@H](NC(=O)[C@H]2CCCCN2C)C(C)C)n1 for me?
inactive

Follow-up entry: Cc1ccc(C)c2c1C(O)(C#Cc1ccccc1)c1ccccc1C2(O)C#Cc1ccccc1 (stereo not drawn)
inactive

Follow-up entry: [Cl][Hg][Cl]
inactive

Follow-up entry: C=C1C(=O)O[C@H]2C[C@@H]1CC/C(C)=C/CC/C(C)=C/CC[C@H]2C
inactive

Follow-up entry: CC(C)(C)C(=O)c1c(C(F)(F)F)n([O-])c2ccccc2[n+]1=O
inactive

Follow-up entry: S=C(Nc1ccc(Br)cc1)Nc1ccc(Br)cc1
inactive

Follow-up entry: CCOC(=O)N1CCN(c2nc(Nc3cc(C)[nH]n3)c3ccccc3n2)CC1
inactive

Follow-up entry: Nc1ccc(C2=NN(c3ccccc3)C(c3ccc(Cl)cc3)C2)cc1 (stereo not drawn)
inactive

Further cases:
Can you look up the reported call for CC(=O)[CH-]C(C)=O.CC(=O)[CH-]C(C)=O.[CH2-]CCC.[CH2-]CCC.[Sn+4] for me?
active

Follow-up entry: O=C1c2ccccc2-c2c1c1c(=O)[nH]c3ccccc3c1n2Cc1ccccc1
inactive

Follow-up entry: COc1cc(C#Cc2ccc(=O)oc2C#Cc2ccccc2)cc(OC)c1OC
inactive

Follow-up entry: CCc1cccc(C)c1NC(=O)c1sc2nc3c(cc2c1N)CCCCC3
inactive

Follow-up entry: COc1ccc(C(=O)/C=C/c2ccc(C)cc2)cc1OC
inactive

Follow-up entry: O=c1c(Oc2ccc(F)cc2F)cc2cnc(NC3CCOCC3)nc2n1CCCO
inactive

* * *

Test system: HS 578T breast
protocol text: NCI tumour cell line growth inhibition, 48 h
quantity: GI50

Write down the reported GI50 of S=C(Nc1ccc(Br)cc1)Nc1ccc(Br)cc1 , test system: HS 578T breast.
85 µM

Follow-up entry: COc1ccc(S(=O)(=O)N2CC(C)(C)CN(S(=O)(=O)c3ccc(OC)cc3)C2C(=O)NO)cc1
> 6.77 µM

Follow-up entry: COc1ccc2c(c1)C(=O)c1c-2n(CCCN=[N+]=[N-])c(=O)c2cc(OC)c(OC)cc12
70 µM

Follow-up entry: COc1ccc(C(=O)/C=C/c2ccc(C)cc2)cc1OC
12.5 µM

Continue with the next molecule.
Write down the reported GI50 of OCc1ccc(-c2ccc(-c3ccc(CO)o3)[se]2)o1 , test system: HS 578T breast.
> 79 µM

* * *

System: HOP-62 NSCLC
protocol text: NCI tumour cell line growth inhibition, 48 h
Threshold rule: TGI greater than or equal to 40 µM is rule met; below that, rule not met.

Examples with answers:
Test whether the molecule O=S(=O)(O)c1cc(O)c2c(N=Cc3ccccc3O)cc(S(=O)(=O)O)cc2c1 records TGI of 40 µM or higher.
rule met

Follow-up entry: O=C1CC2(c3ccccc3)ON=C(c3ccccc3)N2c2ccccc2N1 (stereo unspecified)
rule met

Follow-up entry: COc1ccc2c(c1)C(=O)c1c-2n(CCCN=[N+]=[N-])c(=O)c2cc(OC)c(OC)cc12
rule met

Further cases:
Test whether the molecule Fc1ccc2[nH]cc(-c3nonc3-c3c[nH]c4ccc(Br)cc34)c2c1 records TGI of 40 µM or higher.
rule not met

Follow-up entry: CCCCCC[N+](C)(C)Cc1ccc(C[N+](C)(C)CCCCCC)cc1
rule not met

Follow-up entry: Cc1ccc(N2Cc3c(ccc4ccccc34)OP2(=O)Oc2ccc(Cl)c(C)c2)cc1 (stereo unspecified)
rule met

Follow-up entry: COc1cc2c(cc1OC)C(C(CO)CO)N(CC(O)CCl)CC2 (stereo unspecified)
rule met

Follow-up entry: O=C1c2ccccc2-c2c1c1c(=O)[nH]c3ccccc3c1n2Cc1ccccc1
rule met

Follow-up entry: COc1ccc2nc3c([N+](=O)[O-])ccc4c3c(c2c1)NCCN4CCO
rule not met

Follow-up entry: Cc1cnc2sn(-c3ccc(Oc4ccccc4)cc3)c(=O)c2c1
rule not met
